Assay: soluble on expression in E. coli; label from the status in PepcDB or PDB records

input.sequence | soluble on expression in E. coli
MIYIGLPQWSHPKWVRLGITSLEEYARHFNCVEGNTTLYALPKPEVVLRWREQTTDDFRFCFKFPATISHQAALRHCDDLVTEFLTRMSPLAPRIGQYWLQLPATFGPRELPALWHFLDSLPGEFNYGVEVRHPQFFAKGEEEQTLNRGLHQRGVNQVILDSRPVHAARPHSEAIRDAQRKKPKVPVHAVLTATNPLIRFIGSDDMTQNRELFQVWLQKLAQWHQTTTPYLFLHTPDIAQAPELVHTLWEDLRKTLPEIGAVPAIPQQSSLF | soluble
GMEKLSAIKKPDINVADAWEQYWNKTLVNSTPVLWDANVERAVVVDLPRFELLFNPELPLIDFACGNGTQTKFLSQFFPRVIGLDVSKSALEIAAKENTAANISYRLLDGLVPEQAAQIHSEIGDANIYMRTGFHHIPVEKRELLGQSLRILLGKQGAMYLIELGTGCIDFFNSLLEKYGQLPYELLLVMEHGIRPGIFTAEDIELYFPDFEILSQGEGLFQSIHKLPDGNYATPPAFWAVIKHR | soluble

###

Assay: soluble on expression in E. coli; label from the status in PepcDB or PDB records

input.sequence | soluble on expression in E. coli
MSEKLVLSSGKCFLHEVLCRREEKEYRQNRANLRRGADTTTEVYAFPYVYPQLPQEATTQERLVLMRVAALAAEFGNIPAVGSDTPAKSLGRWAYEVSRQRMLDRQQQVAFNPKKLDVVGERLAYLHTQDFEEAVRAVSRLMSIASSLSNVPAFDYIALYSLFSYWGNGISEKSQRVRMRVLQDYYGSFGSLIE | not soluble
MGSDKIHHHHHHMDTMVSNSQTYLKILADLIKIKSVNDHELEVAEYLQDLFQENGIEAKILPLEGQRANLVAEIGEGAPVLAVSGHMDVVDPGNLAAWDNDPFTMTEKDGKLFGRGITDMKAGLAALVIAMIELKKQGLPKKGTIRLLATAGEEVGEEGSAAFYRDHYMEDAAGLLIAEPSTVYGTASEQKGSFDIKFTSKGTSVHSSTPEKGYNALVPLMQLLNEANTYFETIPAGEMGPVRFNIDVLNGGSQINSLPDLATALVNVRTIPEYDNNQVAKQIETFVKSYNANGAQINTDLIMNEFPIATSPSNQLVKIIQSLGKEYAGRDIVVAASPGITDASNLAKDKPHDFPFAVYGPGDGSQHQVNESLPKQMYLDFIEIYQKLFIEFLEK | not soluble
MGSDKIHHHHHHMSTIIQNTLAPKVQNQLIHHLPALEQAELLSQAKLVQLNFADLLCQPGESYQYVYFPLTAFISLIAKLPKHPALEMGLIGYEGMLGATTLLSTRQVPSEAIIQGSGKAWRIPIATFEDLLAQSSSLRQILETYLYQLLCQLSQNAVCAHFHSVESRLARWLLMSHDRIQTNELFLTHQFLSDMLGVRRSSITEAAGELQASGCISYNRGRLYILDRQGLLARCCSCYHLMRT | not soluble
MGSDKIHHHHHHMIEELAREIVKRFPRNHKETDPFRVLISTVLSQRTRDENTEKASKKLFEVYRTPQELAKAKPEDLYDLIKESGMYRQKAERIVEISRILVEKYGGRVPDSLEELLKLPGVGRKTANIVLWVGFKKPALAVDTHVHRISNRLGWVKTRTPEETEEALKKLLPEDLWGPINGSMVEFGRRICKPQNPLCEECFLKNHCEFYRRRGKGEVRNRTER | not soluble
GTENLYFQGMSDVIEGRLKELGFTLPVAAAPAANYVPFTISGNLLYVSGQLPMESGKIAVTGLVGRDVDVASAQRAAELCAVNILAQVKAALNGDLSKIRRVIKLNGFVASVPEFVEQHLVINGASNLIATVLGEPGRHARAAVGMASLPFNASVEIDAIVEIDV | soluble
YIDILNQARDYVYIMTPYLILDSEMEHALQFAAERGVDVKIIMPGIPDKKVPFALAKRYFPALLDAGVKIYEFTPGFVHAKVFIADDIKAVVGTINLDYRSLYHHFECATYMYQTDCLVDIKADFKETLKQSRRVTRSTLQKEKISTKLIGLVVKLVAPLL | not soluble
DGDQCETSPCQNQGKCKDGLGEYTCTCLEGFEGKNCELFTRKLCSLDNGDCDQFCHEEQNSVVCSCARGYTLADNGKACIPTGPYPCGKQTLERRKRSVAQATSSSGEAPDSITWKPYDAADLDPTENPFDLLDFNQTQPERGDNNLTR | soluble

###

Test: soluble on expression in E. coli; label from the status in PepcDB or PDB records

input.sequence | soluble on expression in E. coli
DKVTQSSPDQTVASGSEVVLLCTYDTVYSNPDLFWYRIRPDYSFQFVFYGDDSRSEGADFTQGRFSVKHILTQKAFHLVISPVRTEDSATYYCAFTLPPPTDKLIFGKGTRVTVEP | soluble
MGSDKIHHHHHHMRAPKISEGKINCKEDDNLKLTVLVDNNTILSNNPHFQDRYFLSEPGLSIFIEADGKKVLFDTGHTGIFLQNSEKMNLDLSDLDYLVLSHGHIDHTGGLKSLIDFYQNQGKTNLKDKPTLIAHPECFLSKIDSPWGEIGCGIPEAEITCHFQLQLSREPLWLTENLVFLGEIERSNDFENLTPLGKVHKNTEGQDDYILDDSALVYKGSKGLIIITGCSHAGICNITKYAQKVCRDERVIDIIGGLHLINPGPIQMEKTKEFLKNVAPQTIRACHCTSLRPKIALAESLNMEEVGTGLQLEYY | not soluble
MAPVIRRAKEIDLYCLNSLMYKLHDEHHQQCPDLFKTASEIEEEKSIARYLDDPECMVYVAEMDDVIIGFITGHFCELISTVSKLVMMATIDELYIEKEYRREGVAEQLMMRIEQELKDYGVKEIFVEVWDFNKGALEFYNKQGLNEHIHYLRKPLNRLEHHHHHH | soluble
MAETEILKCIGCGAPLQSEDLDAPGYVPESSLYKEDVICKRCFRLKNYNEVQDVGLDSEDFLNLLNGLADKKGIVVNVVDVFDFEGSFINAIKRIVGNKQIILVGNKLDLLPKQINKRRVKEWLKKTARKYGLDAEDVILISAEKNEGIEDLLNAINTLRNNDDVYIVGTTNVGKSTLINKLIERSVGEKNVVTTSRFPGTTLDMIDIPLDDTSFMYDTPGVIQEHQMTHYVTEKELKTIMPKKEVKQRVYQLNEGQTLFFGGLARIDYISGGKRPLVCYFSNDLNIHRTKTENANELWRNQLGDVLSPPNNPDHFDLQNVKAVRLETGKEKRDVMISGLGFITIDEGAKIIVRVPKNVDVVLRNSIMLEHHHHHH | not soluble
SDDKPNPEALSDSSERLFSFGVIADVQFADLEDGFNFQGTRRRYYRHSLLHLQGAIEDWNNESSMPCCVLQLGDIIDGYNAQYNASKKSLELVMDMFKRLKVPVHHTWGNHEFYNFSREYLTHSKLNTKFLEDQIVHHPETMPSEDYYAYHFVPFPKFRFILLDAYDLSVLGVDQSSPKYEQCMKILREHNPNTELNSPQGELFL | soluble

###

Test: soluble on expression in E. coli; label from the status in PepcDB or PDB records

input.sequence | soluble on expression in E. coli
MGSDKIHHHHHHMADISIEQSMQLFELQPGKSLDLQINNPVSLRLKLPLIGYELGKYIILKYPKSANTSEYKDVLIEGNVLIVRYLMEGNKGECFAFRSSIKNITQYPEKFIFIEYPNKIENRQLRLQQRTSIHLPAIIMLESSGDNKKTQINGIIGDISAKGCGFTFKTKSTSTKVNKRDIFVCLRSPIDGEVQIPARVCNSRNDNGTVNVGIQFIDNEKLVPKLLSELFIENTMS | not soluble
MDSKILTMFNQGKHEEAIQAAVKAIDAAPDDPKRYAMLATMLISIKALDQAGELLAKARQLFPEDLELQYTAGLFAYAQADFAAAVSWFAKVRTDQTLKNDATYMLALSYQQAGQPTKALAFALTAHDLAPKQLDTALLAADLLMANDVFDAAARVLKPLLATEQPQVLFTYGMALSAAGKDGSHYLNKAKALDPKGYDQKANIVADINRFLRLQEGLEHHHHHH | not soluble
MGSDKIHHHHHHMTWDQSPLRGGEPIVSVQSPFEAIERGPKMEMRDIDFLIIGATKSATTWLQQSLQQDPGIFMPDPELHYFSRYYERGDEWYLEHFAGQEHRRLRGEKSNSYMDVPEAAERIKEKLPEARLIAHVRNPVDRAYSDYCMLYRRAEVGRDIAQYLDPRQGAGGRFLNGGLYYQQLQGYLDRFPAEQILVLLYEDLKIDARAQLARVRGFLGLEADVPLKPLAKKVKDKSEPVVNPTLRRLLRPLKPVAAPFRQNTGFKKLRSLIAGELQYAPLSHDLRARMTDYFAPETEKLGALVGRDLTDWLRNRSPEK | not soluble
